I'd appreciate it if you could supply Morningglory plant response rating values for the items below.
Tested on: morningglory
PROTOCOL SUMMARY: Test A pre-/postemergence greenhouse test
Format: in vivo, Ipomoea spp.
TEST SETTINGS: Postemergence, 125 g ai/ha; 0 to 100 scale, 0 is no effect, 100 is complete control

(Q) Field request: Morningglory plant response rating | item: CC(c1c(C(F)(F)F)nn(C)c1OC(F)F)S(=O)(=O)c1cc(C(C)(C)C)cc[n+]1[O-] (racemic) [Compound 26]
(A) 20

(Q) // same read-out, input: Cn1nc(C(F)(F)F)c(C[S+]([O-])c2ccc(Cl)c[n+]2[O-])c1OC(F)F (stereo not shown) [Compound 6]
(A) 80

(Q) Ok, now Cn1nc(C(F)(F)F)c(C[S+]([O-])c2cc(C(C)(C)C)cc[n+]2[O-])c1OC(F)F (racemic) [Compound 24]
(A) 40

(Q) Further, for Cn1nc(C(F)(F)F)c(C[S+]([O-])c2cc(Br)cc[n+]2[O-])c1Cl (racemic) [Compound 35] ?
(A) 40
